Documented drug sensitivity score across a set of compounds
Test system: DU-4475
assay_text: drug sensitivity score (DSS), CellTiter-Blue viability (DSS (AUC-based score)); higher = stronger viability inhibition; extreme values may be limits of the assay
condition_details: incubation time: 72 h
value_type: drug sensitivity score

sample_smiles=O=c1[nH]cc(F)c(=O)[nH]1 assayed_target=DU-4475 measured_result=1.34
sample_smiles=C[C@@]1(C(=O)Nc2ccc(F)nc2)CCCN1c1nc(Nc2cc(C3CC3)n[nH]2)c2cccn2n1 assayed_target=DU-4475 measured_result=9.27
sample_smiles=CCOc1cc2ncc(C#N)c(Nc3ccc(OCc4ccccn4)c(Cl)c3)c2cc1NC(=O)/C=C/CN(C)C assayed_target=DU-4475 measured_result=0
sample_smiles=CS(=O)(=O)OCCCCOS(C)(=O)=O assayed_target=DU-4475 measured_result=0
sample_smiles=COc1c(C)cnc(Cn2cnc3c(Cl)nc(N)nc32)c1C assayed_target=DU-4475 measured_result=22
